# System: Vero E6 infected with SARS-CoV-2
# MEASUREMENT_DESCRIPTION: inhibition of SARS-CoV-2 cytopathic effect; higher = more antiviral protection, active = above 15
# CONDITION_INFO: 1 nM; 48 h
PROPERTY_NAME: inhibition of SARS-CoV-2 cytopathic effect (%)

COMPOUND	VALUE_UNIT	ASSAY_VALUE
N#C[C@H](O[C@@H]1O[C@H](CO[C@@H]2O[C@H](CO)[C@@H](O)[C@H](O)[C@H]2O)[C@@H](O)[C@H](O)[C@H]1O)c1ccccc1 [amygdalin]	%	0.51
CNC(=O)c1cccc2cc(Oc3ccnc4cc(OCC5(N)CC5)c(OC)cc34)ccc12 [lucitanib]	%	0.14
CC(O)COC[C@H]1O[C@@H]2O[C@H]3[C@H](O)[C@@H](O)[C@@H](O[C@H]4[C@H](O)[C@@H](O)[C@@H](O[C@H]5[C@H](O)[C@@H](O)[C@@H](O[C@H]6[C@H](O)[C@@H](O)[C@@H](O[C@H]7[C@H](O)[C@@H](O)[C@@H](O[C@H]8[C@H](O)[C@@H](O)[C@@H](O[C@H]1[C@H](O)[C@H]2O)O[C@@H]8COCC(C)O)O[C@@H]7COCC(C)O)O[C@@H]6COCC(C)O)O[C@@H]5COCC(C)O)O[C@@H]4COCC(C)O)O[C@@H]3COCC(C)O (stereo partly drawn) [hydroxypropyl-beta-cyclodextrin]	%	1.48
OCCN1C[C@H](O)[C@@H](O)[C@H](O)[C@H]1CO [miglitol]	%	-4.01
CCCCN1CCC(CCC(=O)c2cc(Cl)c(N)cc2OC)CC1	%	-0.14
C[C@@H](N)c1ccc(C(=O)Nc2ccnc3[nH]ccc23)cc1	%	0.69
O[C@H]1[C@H]2[C@H](O)CCCN2C[C@H]1O [swainsonine]	%	-4.09
